Each recorded value in this set is attributed to ChEMBL document CHEMBL5308504.

I'd be grateful if you could share measured ΔTm for these entries.
Target: UniProtKB P22607
Sequence (P22607 23-806 limits assumed): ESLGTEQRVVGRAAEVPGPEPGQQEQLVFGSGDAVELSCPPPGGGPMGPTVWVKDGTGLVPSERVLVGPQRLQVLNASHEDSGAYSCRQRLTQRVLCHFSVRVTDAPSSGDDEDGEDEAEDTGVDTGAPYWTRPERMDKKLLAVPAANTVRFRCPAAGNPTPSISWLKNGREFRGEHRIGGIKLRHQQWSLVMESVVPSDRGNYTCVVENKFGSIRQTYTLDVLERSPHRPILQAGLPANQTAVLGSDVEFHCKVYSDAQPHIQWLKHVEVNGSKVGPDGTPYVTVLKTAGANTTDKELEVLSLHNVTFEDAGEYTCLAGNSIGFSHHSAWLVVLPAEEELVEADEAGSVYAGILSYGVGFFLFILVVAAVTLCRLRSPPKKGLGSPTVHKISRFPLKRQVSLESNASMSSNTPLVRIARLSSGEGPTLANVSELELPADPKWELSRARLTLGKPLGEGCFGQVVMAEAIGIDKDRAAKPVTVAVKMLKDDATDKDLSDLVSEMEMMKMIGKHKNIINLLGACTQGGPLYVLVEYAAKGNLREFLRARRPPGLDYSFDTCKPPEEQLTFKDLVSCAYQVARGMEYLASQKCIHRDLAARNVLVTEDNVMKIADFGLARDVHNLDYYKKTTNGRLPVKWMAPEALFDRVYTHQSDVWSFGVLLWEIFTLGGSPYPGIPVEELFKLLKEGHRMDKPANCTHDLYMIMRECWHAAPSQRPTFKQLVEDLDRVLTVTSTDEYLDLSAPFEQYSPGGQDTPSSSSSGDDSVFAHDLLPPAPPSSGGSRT
Experimental setup: Compound concentration 20.0 uM, Protein concentration 2.0 uM, Result type QC Liability
Description: Thermal Shift Assay. Domain: start/stop: P449-E759
Answers are plain numbers, in °C.

| Molecule | Target | Measurement units | ΔTm |
| --- | --- | --- | --- |
| O=C(Cc1ccccc1)Nc1nnc(N2C[C@H]3C[C@@H]2CN3c2cccnn2)s1 | UniProtKB P22607 | °C | 0.46 |

Hey, quick one: what's ΔTm for each of these?
1. O=C(O)c1cccc(C2=C(c3cc(Cl)ccc3OCc3ccc(F)cc3F)CCC2)n1
2. CCN1C(=O)C(c2cccc(C(=O)O)c2)C(=O)N(c2ccccc2)c2cc(C(F)(F)F)ccc21 (centres undefined)

1: -0.33; 2: 0.62
